Data provenance is patent US20240368150A1.

Tested on: primary human T-cells
test-method-notes: Proliferation assay after 5 days (CellTiter-Glo, CD3 stimulation; PBS counter screen)
Type: cell-based
stated-conditions: primary human T-cells, CD3 stimulation, CellTiter-Glo after 5 days; EC50 of fitted sigmoidal curve; read-out: Tcell Proliferation CD3 EC50
pEC50: −log10 of the molar value.
Hi, to clarify the labels: 1.0 covers pEC50 from 6 upward, 0.0 covers anything below 6.

| compound | class |
| --- | --- |
| COC(=O)N1CC2CC(c3nc(-c4cc5c(cc4F)[S+]([O-])C[C@H](N)C(=O)N5Cc4ccc(OC(F)(F)F)cc4)no3)(C2)C1 (stereo partly shown) [Example 337] | 0.0 |
| CC(C)(C)c1nnc(-c2cc3c(cc2F)[S+]([O-])C[C@H](N)C(=O)N3Cc2ccc(OC(F)(F)F)cc2)o1 (stereo partly shown) [Example 453] | 1.0 |
| CN1CC(c2nc(-c3cc4c(cc3F)[S+]([O-])C[C@H](N)C(=O)N4Cc3ccc(Cl)cc3)no2)CC(F)(F)C1 (single isomer, unassigned; epimer a) [Example 342] | 0.0 |
| N[C@H]1C[S+]([O-])c2ccc(-c3nnc(CC(F)(F)F)o3)cc2N(Cc2ccc(OC(F)(F)F)cc2)C1=O (single isomer, unassigned; epimer a) [Example 427] | 0.0 |
| CN1CC(c2nnc(-c3cc4c(cc3F)S(=O)(=O)C[C@H](N)C(=O)N4Cc3ccc(Cl)cc3)o2)CC(F)(F)C1 (stereo partly shown) | 1.0 |
| CC(C)(C)c1nc(-c2cc3c(cc2F)[S+]([O-])C[C@H](N)C(=O)N3Cc2ccc(Cl)cc2)no1 (single isomer, unassigned; epimer b) [Example 341] | 0.0 |
| CC(C)(C)c1nnc(-c2cc3c(cc2F)S(=N)(=O)C[C@H](N)C(=O)N3Cc2ccc(OC(F)(F)F)cc2)o1 (single isomer, unassigned) [Example 517] | 0.0 |
| N[C@H]1C[S+]([O-])c2cc(F)c(-c3noc(N4CCOC5CC54)n3)cc2N(Cc2ccc(Cl)cc2)C1=O (single isomer, unassigned; epimer a) [Example 207] | 0.0 |
| CC(C)(C)c1nnc(-c2cc3c(cc2F)[S+]([O-])C[C@H](N)C(=O)N3Cc2ccc(Cl)cc2)o1 (single isomer, unassigned; epimer b) [Example 187] | 0.0 |
| CN1CC(c2nc(-c3cc4c(cc3F)[S+]([O-])C[C@H](N)C(=O)N4Cc3ccc(Cl)cc3)no2)CC(F)(F)C1 (single isomer, unassigned; epimer b) [Example 343] | 0.0 |
| COC(F)(c1nc(-c2cc3c(cc2F)[S+]([O-])C[C@H](N)C(=O)N3Cc2ccc(Cl)cc2)no1)C(F)(F)F (single isomer, unassigned; epimer b) | 1.0 |
| CC(C)(C)c1nnc(-c2cc3c(cc2F)S(=N)(=O)C[C@H](N)C(=O)N3Cc2ccc(OC(F)(F)F)cc2)o1 (single isomer, unassigned) [Example 518] | 0.0 |
| CC(C)(C)n1nnc(-c2cc3c(cc2F)[S+]([O-])C[C@H](N)C(=O)N3Cc2ccc(Cl)cc2)n1 (stereo partly shown) [Example 34] | 0.0 |
| N[C@H]1C[S+]([O-])c2cc(F)c(-c3noc(N4CCOC5(CC5)C4)n3)cc2N(Cc2ccc(Cl)cc2)C1=O (single isomer, unassigned; epimer a) [Example 211] | 1.0 |
| CC[C@H](NC)C(=O)N[C@H]1CS(=O)(=O)c2cc(F)c(-c3nnc(C(C)(C)C)o3)cc2N(Cc2ccc(Cl)cc2)C1=O [Example 270] | 1.0 |
